Exercise: state measured pIC50 for each of the compounds provided.
System: BV-2
TEST: Antineuroinflammatory activity in LPS induced mouse BV-2 cells assessed as inhibition of NO production pretreated for 3 hrs followed by LPS addition and measured after 21 hrs by griess reagent based assay
Type: functional, cell-based
Worth noting: pIC50 values are minus log10 of concentrations stated in mol/L.

**Query** // query pIC50 value for entry COC(=O)c1cccc2nc3c([C@H](O)[C@@H](C)C(=O)OC)cccc3nc12
**Result** 5.08

**Query** // query pIC50 value for entry O=C(O)c1ccc[nH]1
**Result** 4.71

**Query** // query pIC50 value for entry COC(=O)[C@H](C)[C@@H](O)c1cccc2nc3c(C(=O)O)cccc3nc12
**Result** 5.10

**Query** // query pIC50 value for entry COC(=O)C[C@@H](O)c1cccc2nc3c(C(=O)OC)cccc3nc12
**Result** 5.08

**Query** // query pIC50 value for entry CC(=O)NCCC(=O)Nc1cccs1
**Result** 4.76

**Query** // query pIC50 value for entry COC(=O)c1cccc2nc3ccccc3nc12
**Result** 5.07

**Query** // query pIC50 value for entry COC(=O)c1cccc2nc3c([C@@H](C)O)cccc3nc12
**Result** 5.07

**Query** // query pIC50 value for entry COC(=O)c1cccc2nc3c([C@H](O)[C@H](C)C(=O)OC)cccc3nc12
**Result** 5.09

**Query** // query pIC50 value for entry CSC(=N)N
**Result** 5.12

**Query** // query pIC50 value for entry O=C(O)c1cccc2nc3ccccc3nc12
**Result** 5.08

**Query** // query pIC50 value for entry O=c1c(O)c(-c2ccc(O)c(O)c2)oc2cc(O)cc(O)c12
**Result** 5.01
